# System: NCI-H226 lung
# method description: NCI tumour cell line growth inhibition, 48 h
Recorded GI50 for the following compounds

[
  {
    "compound": "Clc1ccc2nc(CI)c(CI)nc2c1",
    "study system": "NCI-H226 lung",
    "assay value": "10.4 µM"
  },
  {
    "compound": "Cc1cc(OCCOCCC(F)(F)P(=O)(O)O)ccc1CCc1cnc2c(N)nc3cc(CCC(=O)O)ccc3c2c1",
    "study system": "NCI-H226 lung",
    "assay value": "> 100 µM"
  },
  {
    "compound": "CC(=O)/C=C/C1=C(c2csc3ccccc23)c2ccccc2CC1",
    "study system": "NCI-H226 lung",
    "assay value": "19.8 µM"
  }
]

Need GI50 of `COC(=O)c1c2c(c(C)[n+]([O-])c1C)C(=O)C=C(NCc1cccc(Cl)c1)C2=O` , thanks.
1.41 µM

Which GI50 reading was recorded for the compound `O=C1C(=O)c2ccccc2C(O)=C1CCCc1ccc(C2CCCCC2)cc1` ?
5.42 µM

Returns the measured GI50 for the input compound. Input: `NC(N)=NC(N)=NCCCc1ccco1`
98.3 µM

Item under review: O=CN1N=C(c2cccc(Nc3ccnc4cc(Cl)ccc34)c2)CC1c1ccccc1 (stereo unspecified) . Reported GI50?
3.32 µM

State the recorded GI50 for this entry: `COc1ccc(/C=C2\SC(=Nc3ccccc3)NC2=O)cc1`
13.8 µM

Requested field: GI50. Item: `ClCc1ccccc1Cn1cnc2c(Cl)ncnc21`
4.59 µM

Entry under review: `CC(C)C(=O)c1c(C(F)(F)F)n([O-])c2cc(F)c(F)cc2[n+]1=O` . Reported GI50?
1.26 µM

Suppose we examine the compound `O=C(c1ccccc1)c1c(C(F)(F)F)n([O-])c2cc(C(F)(F)F)ccc2[n+]1=O` ; what GI50 value has been reported?
1.83 µM

----------
# Test system: NCI-H23 lung
# method description: NCI tumour cell line growth inhibition, 48 h
experimental endpoint: TGI

Example molecules with recorded TGI:
[
  {
    "molecule": "CC(C)C(=O)/C=C/S/C=C/C(=O)C(C)C",
    "study system": "NCI-H23 lung",
    "TGI": "7.57 µM"
  },
  {
    "molecule": "NC(N)=NC(N)=NCCCc1ccco1",
    "study system": "NCI-H23 lung",
    "TGI": "> 500 µM"
  },
  {
    "molecule": "CC(C)(C)N/N=C(\\C(=O)Nc1nc(=S)[nH][nH]1)C1C(=O)Nc2ccccc2S1=O (stereo unspecified)",
    "study system": "NCI-H23 lung",
    "TGI": "> 100 µM"
  }
]

Name the reported TGI value associated with the molecule COC(=O)c1c(C)cccc1C1CN=NC12Cc1cc(C)cc(C)c1C2=O (stereo unspecified)
78.4 µM

Name the recorded TGI for `C=CCN1/C(=C2\SC(=S)N(c3ccc(C)cc3)C2=O)Sc2c1ncn(C)c2=O` .
> 100 µM

Which measured TGI value corresponds to `COC(=O)c1c2c(c(C)[n+]([O-])c1C)C(=O)C=C(NCc1cccc(Cl)c1)C2=O` ?
2.54 µM

Consider the molecule `O=C1C(=O)c2ccccc2C(O)=C1CCCc1ccc(C2CCCCC2)cc1` and give its measured TGI.
61.4 µM

Sample `Cc1c(Cl)cccc1NC(=O)/C=C/c1ccccc1` — what was its TGI?
> 100 µM

Given the molecule `CC(C)(C)NC(=O)/C(=C\Sc1ccccc1)c1ccccc1` , what is its reported TGI?
> 100 µM

Which measured TGI value corresponds to `Cc1cc2c(c(S(=O)(=O)c3ccccc3[N+](=O)[O-])c1)NCCC2` ?
> 100 µM

# TGI lookup, item COc1ccc2c(c1)NC1(O)c3ccccc3C(=O)C21O (stereo unspecified)
> 100 µM

----------
# Test system: HL-60(TB) leukemia
# method description: NCI tumour cell line growth inhibition, 48 h; in the data active = GI50 below about 0.43 µM; inactive = the rest
Output constraint: value belongs to YES = active, NO = inactive

[
  {
    "compound": "COc1ccc(/C=C2\\SC(=Nc3ccccc3)NC2=O)cc1",
    "cat": "NO"
  },
  {
    "compound": "CCCCCCCC(=O)SCC/C=C/[C@@H]1CC(=O)NCc2nc(cs2)C2=N[C@@](C)(CS2)C(=O)N[C@@H](C(C)C)C(=O)N1",
    "cat": "YES"
  },
  {
    "compound": "O=C(c1ccco1)c1c(C(F)(F)F)n([O-])c2cc(C(F)(F)F)ccc2[n+]1=O",
    "cat": "YES"
  },
  {
    "compound": "COC(=O)CCNc1c2ccccc2nc2cccc([N+](=O)[O-])c12",
    "cat": "YES"
  },
  {
    "compound": "C=C1SC(=Nc2ccccc2Cl)N(C(=O)c2sc3ccccc3c2Cl)C12CCCCC2",
    "cat": "NO"
  },
  {
    "compound": "C=C1C(=O)O[C@H]2[C@H]1CC/C(COC(=O)CCCc1c[nH]c3ccccc13)=C\\CC[C@@]1(C)O[C@@H]21",
    "cat": "NO"
  }
]

Please indicate how the test categorized `COc1ccc(NC(=O)c2sc3nc(C)c(C(=O)/C=C/c4cccc(OC)c4)cc3c2N)cc1` .
NO

Status in this test for `Clc1ccc2nc(CI)c(CI)nc2c1` ?
NO

Could you kindly confirm the outcome this assay logged for `N#C/C(=N\Nc1ccccc1)C(=O)Nc1cc(-c2ccccc2)nn1-c1ccccc1` ?
NO

Entry `CCCCCCCCCCCCCCCCOP(=O)([O-])OCC[N+](C)(C)C` : call = ?
NO

Give the logged outcome of this assay for the following compound: `NC(N)=NC(N)=NCCCc1ccco1`
NO

Hi team, can someone confirm the assay call for Cc1c(N)nc(C(CC(N)=O)NCC(N)C(N)=O)nc1C(=O)NC(C(=O)NC(C)C(O)C(C)C(=O)NC(C(=O)NCCc1nc(-c2nc(C(=O)NCCCNC(C)c3ccccc3)cs2)cs1)C(C)O)C(OC1OC(CO)C(O)C(O)C1OC1OC(CO)C(O)C(OC(N)=O)C1O)c1cnc[nH]1 (stereo not drawn) ?
NO

Please state the recorded outcome for this compound: `O=C(/C=C1\C(=O)N(Cc2ccccc2)c2ccccc21)c1ccc(OCCN2CCCCC2)cc1`
NO

----------
# System: COLO 205 colon
# method description: NCI tumour cell line growth inhibition, 48 h
experimental endpoint: TGI (µM)
# value in µM; strip the unit string

Below, 6 compounds whose answers are already recorded.
[
  {
    "cpd smiles": "CN(CCCNC(=O)c1nn(C)c2c1Cc1ccccc1-2)CCCNC(=O)c1nn(C)c2c1Cc1ccccc1-2",
    "TGI, µM": 30.2
  },
  {
    "cpd smiles": "O=C(c1ccco1)c1c(C(F)(F)F)n([O-])c2cc(C(F)(F)F)ccc2[n+]1=O",
    "TGI, µM": 2
  },
  {
    "cpd smiles": "N#Cc1cc(Sc2ccc(N)c(C#N)c2)ccc1N",
    "TGI, µM": 23.7
  },
  {
    "cpd smiles": "Clc1ccc2nc(CI)c(CI)nc2c1",
    "TGI, µM": 3.28
  },
  {
    "cpd smiles": "Cc1cc(Nc2ccc(NS(C)(=O)=O)cc2)c2c(ccc3nccc32)[nH]1",
    "TGI, µM": 35.8
  },
  {
    "cpd smiles": "COC1=CC(c2ccc[nH]2)=N/C1=C\\c1[nH]c(C)c(CC(=O)OCc2ccccc2)c1C",
    "TGI, µM": 1.27
  }
]

// returns reported TGI for input `COC(=O)CCNc1c2ccccc2nc2cccc([N+](=O)[O-])c12`
0.0171

----------
# System: U251 CNS
# method description: NCI tumour cell line growth inhibition, 48 h
molecules and their reported TGI

[
  {
    "molecule": "Cc1ccc(NC(=O)/C(Cc2cc(=O)oc3cc(O)ccc23)=N\\NC(C)(C)C)cc1C",
    "assay value": "> 100 µM"
  },
  {
    "molecule": "C=CC(=O)N1C/C(=C\\c2ccc([N+](=O)[O-])cc2)C(=O)/C(=C/c2ccc([N+](=O)[O-])cc2)C1",
    "assay value": "0.978 µM"
  },
  {
    "molecule": "CCN(CC)CCn1c(=O)c2c(C)c3oc4ccccc4oc3c(C)c2c1=O",
    "assay value": "> 100 µM"
  },
  {
    "molecule": "O=[N+]([O-])/C=C(\\CS(=O)(=O)c1ccccc1)c1ccc2c(c1)OCO2",
    "assay value": "> 100 µM"
  },
  {
    "molecule": "COC(=O)c1c2c(cc3c1CC1(Cc4cc5c(c(C(C)=O)c4C1)CCCC5)C3)CCCC2 (configuration not stated)",
    "assay value": "> 100 µM"
  }
]

For `COc1ccc2c(c1)NC1(CCN(CCCC(=O)c3ccc(F)cc3)CC1)N=N2` , what is its reported TGI?
48.6 µM

Field request: TGI | item: `C=C(C)[C@H]1C2=CC(C)=C(O2)[C@@H](O)[C@H](C(=C)C)CCC2=C[C@H]1OC2=O`
> 100 µM

Report TGI for `COC1=C(Cl)C(=O)c2c(O)ccc(O)c2C1=O` please.
11.9 µM
